Please respond with reported cellular ATP content (survival) for every item in the list.
method-notes: rescue of cells from ER stress-induced death, primary screen, 384-well, CSM14.1, thapsigargin, ATP luminescence (AID 1222);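 also: death triggered by thapsigargin at about 15 µM added after 2 h compound pretreatment; cell ATP read after overnight thapsigargin exposure of roughly 18 to 22 hours; reference of the scale not given here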
stated-conditions: CSM14.1 thapsigargin-induced death rescue, at 20 µM, active compounds read high
Among all 190,000 compounds or so, fewer than 10 were called active. Not all results are given here. Measured potencies and affinities stand elsewhere.
Your answer is read as %, so omit the unit and give the number.

Look up cellular ATP content (survival) for this molecule: Cc1ccc(S(=O)(=O)N2CCN(C(=O)CSc3nnc(C)c(=O)[nH]3)CC2)cc1
0.3

Look up cellular ATP content (survival) for this molecule: O=C(N/N=C/c1ccncc1)NC1CCCCC1
-0.5

Look up cellular ATP content (survival) for this molecule: COC(=O)COc1ccc(S(=O)(=O)N2CCc3ccccc3C2)cc1C
-0.7

Look up cellular ATP content (survival) for this molecule: Cc1ccc(C)c(N2CCN(C(=O)CN(C)S(=O)(=O)c3cnc[nH]3)CC2)c1
-1.7

Look up cellular ATP content (survival) for this molecule: O=C(NC1CCCCC1)C(c1ccc2ncccc2c1)N(Cc1ccccc1)C(=O)c1cccs1 (configuration not stated)
-2.1

Look up cellular ATP content (survival) for this molecule: O=CN1CCN(C(=O)c2ccc([N+](=O)[O-])cc2)CC1
1.3

Look up cellular ATP content (survival) for this molecule: CCN1C(=O)/C(=C/c2ccc(N3CCCC3)cc2)NC1=S
0.3

Look up cellular ATP content (survival) for this molecule: O=C(NC1CCCCC1)C(c1ccc2ncccc2c1)N(Cc1cccs1)C(=O)c1cccs1 (configuration not stated)
-8.2

Look up cellular ATP content (survival) for this molecule: COc1ccc2c(c1)N(C(=O)CSc1n[nH]c(C)n1)C(C)(C)C=C2C
5.3

Look up cellular ATP content (survival) for this molecule: C[C@@H]1NC(=O)c2cc([N+](=O)[O-])cc(I)c2NCCCC[C@@H](C(N)=O)NC(=O)[C@H](CCC(=O)O)NC1=O
6.5

Look up cellular ATP content (survival) for this molecule: COCCN(C(=O)Cc1cccs1)C(C(=O)NC1CCCC1)c1ccc(OC)c(OC)c1 (configuration not stated)
-1

Look up cellular ATP content (survival) for this molecule: CC(=O)c1c(C)[nH]c(C(=O)COC(=O)CCSc2ccccc2)c1C
0.3

Look up cellular ATP content (survival) for this molecule: COc1ccc(C(C(=O)NC2CCCCC2)N(C(=O)CCCC(=O)Nc2ccccn2)c2ccc3c(c2)OCCO3)cc1 (configuration not stated)
3.5

Look up cellular ATP content (survival) for this molecule: CCOC(=O)CC1ON(C)C(=O)N1c1ccc(Cl)cc1Cl (configuration not stated)
0.4

Look up cellular ATP content (survival) for this molecule: Cc1ccccc1NS(=O)(=O)c1cc(C(=O)N2CCc3ccccc3C2)ccc1C
0.4

Look up cellular ATP content (survival) for this molecule: CCOC(=O)c1cc2cc([N+](=O)[O-])cc(OC)c2oc1=O
0

Look up cellular ATP content (survival) for this molecule: COC(=O)C1=C(N)Oc2cc(C)n(Cc3cccnc3)c(=O)c2C1c1cc(OC)ccc1OC (configuration not stated)
-3.1

Look up cellular ATP content (survival) for this molecule: O=C(OCc1cc(=O)n2c(n1)sc1ccccc12)c1ccc(O)cc1O
-1.2

Look up cellular ATP content (survival) for this molecule: CC(=O)Cn1c(N2CCC(Cc3ccccc3)CC2)nc2c1c(=O)[nH]c(=O)n2C
-1.8

Look up cellular ATP content (survival) for this molecule: Cc1ccc(S(=O)(=O)c2nc(-c3ccccc3)oc2NCc2cccnc2)cc1
3.8

Look up cellular ATP content (survival) for this molecule: NS(=O)(=O)c1ccc(CCNC(=O)CN2CCN(c3cccc(Cl)c3)CC2)cc1
-2.9

Look up cellular ATP content (survival) for this molecule: CN(C1CCCCC1)S(=O)(=O)c1ccc(NC(=O)CCC(=O)O)cc1
-1.8

Look up cellular ATP content (survival) for this molecule: O=C(N/N=C/c1ccccc1OC(F)F)C1=COCCO1
0.4

Look up cellular ATP content (survival) for this molecule: C=CCNCCCCOc1ccc(C)cc1[N+](=O)[O-]
-1.5

Look up cellular ATP content (survival) for this molecule: CCn1c(SCc2ccccc2Cl)nc2nc3c(cc2c1=O)CCCC3
-4.7

Look up cellular ATP content (survival) for this molecule: O=C(NC1CCCCC1)C(c1ccc2ncccc2c1)N(Cc1ccc(F)cc1)C(=O)c1cccs1 (configuration not stated)
-1.3

Look up cellular ATP content (survival) for this molecule: COC(=O)c1sc2ccccc2c1-n1cccc1C(=O)C(=O)Nc1ccc(OC)cc1
4.6

Look up cellular ATP content (survival) for this molecule: CN(C)c1nc(N/N=C/c2ccccc2O)nc(Nc2ccc(F)cc2)n1
-6.9

Look up cellular ATP content (survival) for this molecule: O=C(NC1CCCCC1)C(c1ccc2ncccc2c1)N(Cc1ccco1)C(=O)c1ccc2c(c1)OCCO2 (configuration not stated)
14.1

Look up cellular ATP content (survival) for this molecule: CCCN1C(=O)/C(=C/c2ccc(N3CCCC3)c(C)c2)NC1=S
-2

Look up cellular ATP content (survival) for this molecule: Cc1ccc(-c2nc(CSCC(=O)N3CCN(c4ccccn4)CC3)c(C)o2)cc1
-0.2

Look up cellular ATP content (survival) for this molecule: Cc1ccc(NC(=O)c2ccc(OC(=S)N3CCOCC3)cc2)cc1
-1.3

Look up cellular ATP content (survival) for this molecule: CC(C)C(=O)c1cn(CC(=O)N2CCCc3ccccc32)c2ccccc12
0.1

Look up cellular ATP content (survival) for this molecule: Fc1cccc(Cc2noc(CN3CCC(c4ccncc4)CC3)n2)c1
1.8

Look up cellular ATP content (survival) for this molecule: O=C(c1ccc(Cl)c(S(=O)(=O)N2CCCCCC2)c1)N1CCN(c2ccccc2O)CC1
0.3

Look up cellular ATP content (survival) for this molecule: Cc1cccc(-n2cnc3cc(C(=O)N4CCc5ccccc54)ccc32)c1
-2.1

Look up cellular ATP content (survival) for this molecule: CC(=O)c1c(C)nc2ccc(Br)cc2c1C(=O)O
0.7

Look up cellular ATP content (survival) for this molecule: Cc1cc(C)n(C(=O)COc2c(C)cccc2C)n1
-2.8

Look up cellular ATP content (survival) for this molecule: CCCCP(=O)(CCCC)c1ccccc1C(=O)O
-0.7

Look up cellular ATP content (survival) for this molecule: O=C(Nc1ccccc1)c1nn(-c2ccccc2)c(=O)cc1C(F)(F)F
2

Look up cellular ATP content (survival) for this molecule: COc1ccccc1CNC(=O)CCNC(=O)Cn1cnc2ccccc2c1=O
0.7

Look up cellular ATP content (survival) for this molecule: O=C(N/N=C/c1ccc(OCC(=O)N2CCCCC2)cc1)c1ccccc1O
2.1

====

Please respond with reported cellular ATP content (survival) for every item in the list.
method-notes: rescue of cells from ER stress-induced death, primary screen, 384-well, CSM14.1, thapsigargin, ATP luminescence (AID 1222);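 also: death triggered by thapsigargin at about 15 µM added after 2 h compound pretreatment; cell ATP read after overnight thapsigargin exposure of roughly 18 to 22 hours; reference of the scale not given here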
stated-conditions: CSM14.1 thapsigargin-induced death rescue, at 20 µM, active compounds read high
In all, about 190,000 compounds went through this assay and fewer than 10 were called active. A selection follows. Measured potencies and affinities stand elsewhere.
Your answer is read as %, so omit the unit and give the number.

Look up cellular ATP content (survival) for this compound: CCCCNS(=O)(=O)c1ccc(S(=O)(=O)NCc2ccncc2)cc1
-1.8

Look up cellular ATP content (survival) for this compound: CCCOC(=O)CN1C(=O)c2ccccc2C1=O
-2.4

Look up cellular ATP content (survival) for this compound: CC1CCCC(NC(=O)COC(=O)Cc2ccsc2)C1C (stereo unspecified)
-1.7

Look up cellular ATP content (survival) for this compound: Cn1c(N)c(C(=O)COC(=O)c2ccnc3ccccc23)c(=O)n(C)c1=O
-2.1

Look up cellular ATP content (survival) for this compound: COc1ccccc1OCc1ccc(C(=O)NCC(C)C)o1
2.9

Look up cellular ATP content (survival) for this compound: C=CCn1c(=O)c(C(=O)OCC)c(O)c2ccccc21
-1.4

====

method-notes: rescue of cells from ER stress-induced death, primary screen, 384-well, CSM14.1, thapsigargin, ATP luminescence (AID 1222);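 also: death triggered by thapsigargin at about 15 µM added after 2 h compound pretreatment; cell ATP read after overnight thapsigargin exposure of roughly 18 to 22 hours; reference of the scale not given here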
stated-conditions: CSM14.1 thapsigargin-induced death rescue, at 20 µM, active compounds read high
The whole screen tested about 190,000 compounds, of which fewer than 10 were called active. A selection follows. Entries with a potency or affinity are not part of this list.
value-kind: cellular ATP content (survival) (%)
Your answer is read as %, so omit the unit and give the number.

Look up cellular ATP content (survival) for this compound: O=c1cc(COn2nnc3ccc(C(F)(F)F)cc32)nc2sccn12
-1.8

Look up cellular ATP content (survival) for this compound: COc1cc(/C=N/Nc2nc(Nc3ccccc3)nc(N3CCCCC3)n2)ccc1OCC(=O)O
-1.5

Look up cellular ATP content (survival) for this compound: O=c1[nH]c(CCC2CCCC2)nc2ccccc12
-3.1
